experiment: clinical
test context: human, plasma, oral, 27 mg, AUC0-t Mean, 27 mg single dose, Cohort 1, mild hepatic impairment (Child Pugh A)

| compound | AUC(0-t), ng·h/mL |
| --- | --- |
| Cl.Oc1ccc2c3c1OC1[C@@H](O)CC[C@@]4(O)[C@@H](C2)N(CC2CCC2)CC[C@]314 (stereo partly shown) | 48.9 |

###

experiment: clinical
test context: human, plasma, oral, 27 mg, AUC0-t Mean, 27 mg single dose, Cohort 1, moderate hepatic impairment (Child Pugh B)
metric: AUC(0-t) (ng·h/mL)

| molecule | measured number |
| --- | --- |
| Cl.Oc1ccc2c3c1OC1[C@@H](O)CC[C@@]4(O)[C@@H](C2)N(CC2CCC2)CC[C@]314 (stereo partly shown) | 244 |

###

experiment: clinical
test context: human, plasma, oral, 162 mg, mean AUC0-t, 162 mg single dose, Cohort 4, mild hepatic impairment (Child Pugh A)

| compound | AUC(0-t) |
| --- | --- |
| Cl.Oc1ccc2c3c1OC1[C@@H](O)CC[C@@]4(O)[C@@H](C2)N(CC2CCC2)CC[C@]314 (stereo partly shown) | 375 ng·h/mL |

###

experiment: clinical
test context: human, plasma, oral, 27 mg, Cmax Mean, 27 mg single dose, Cohort 1, mild hepatic impairment (Child Pugh A)

| compound | units text | Cmax |
| --- | --- | --- |
| Cl.Oc1ccc2c3c1OC1[C@@H](O)CC[C@@]4(O)[C@@H](C2)N(CC2CCC2)CC[C@]314 (stereo partly shown) [nalbuphine] | ng/mL | 3.56 |

###

experiment: clinical
test context: human, plasma, oral, 162 mg, mean AUC0-t, 162 mg single dose, Cohort 4, moderate hepatic impairment (Child Pugh B)

| compound | AUC(0-t) |
| --- | --- |
| Cl.Oc1ccc2c3c1OC1[C@@H](O)CC[C@@]4(O)[C@@H](C2)N(CC2CCC2)CC[C@]314 (stereo partly shown) | 1230 ng·h/mL |

###

experiment: clinical
test context: human, plasma, oral, 162 mg, mean Cmax, 162 mg single dose, Cohort 4, mild hepatic impairment (Child Pugh A)
metric: Cmax (µg/mL)

| compound | units text | measured number |
| --- | --- | --- |
| Cl.Oc1ccc2c3c1OC1[C@@H](O)CC[C@@]4(O)[C@@H](C2)N(CC2CCC2)CC[C@]314 (stereo partly shown) | µg/mL | 0.0199 |
